// provenance: paper PMC2756588

binders and their reported SPOT intensity
# targetEntity: T1, Sla1-2, P32790
# T1 sequence (P32790 60-140, looked up): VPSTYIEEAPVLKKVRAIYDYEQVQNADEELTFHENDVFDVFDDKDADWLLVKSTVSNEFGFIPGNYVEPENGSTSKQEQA
# assayRemarks: SPOT array
# conditionSet: median of control spots 712

Some solved entries appear below for comparison.
{"binder": "NNQRRKPLLLNIGDH", "SPOT intensity": 0}
{"binder": "RPVPPPPPMRTTTEG", "SPOT intensity": 0}
{"binder": "RFKRHRLEFPFNESE", "SPOT intensity": 0}

Inquiry: Can you share its SPOT intensity? I mean this binder: ISRRRLPVIMHRLKM
Reply text: 1

Inquiry: Same again, this time with RHLKLVPSTPMDIPW
Reply text: 3

Inquiry: Same again, this time with APERAVPILPPRNNV
Reply text: 0
